# System: COLO 205 colon
# Measurement Notes: NCI tumour cell line growth inhibition, 48 h
Measurement Name: TGI

{"Compound": "C[Si](C)(C)/C=C\\CCO", "Tested On": "COLO 205 colon", "Measurement Name": "TGI", "Reported Result": "> 100 µM"}
{"Compound": "CN1CC2=C(NC(=S)NC2c2ccccc2)/C(=C/c2ccccc2)C1 (configuration not stated)", "Tested On": "COLO 205 colon", "Measurement Name": "TGI", "Reported Result": "> 100 µM"}
{"Compound": "O=P1(S)OC[C@H]2O[C@@H]3[C@H](F)[C@@H]2OP(O)(=S)OC[C@H]2O[C@H]([C@H](F)[C@@H]2O1)n1cnc2c(ncnc21)NC/C=C/CNc1ncnc2c1ncn23 (some centres not stated)", "Tested On": "COLO 205 colon", "Measurement Name": "TGI", "Reported Result": "> 100 µM"}
{"Compound": "COc1cccc(N[C@@H]2c3cc4c(cc3C(c3cc(OC)c(O)c(OC)c3)[C@H]3C(=O)OCC32)OCO4)c1 (some centres not stated)", "Tested On": "COLO 205 colon", "Measurement Name": "TGI", "Reported Result": "7.39 µM"}
{"Compound": "O=c1[nH]c2nc(NC3CCOCC3)ncc2cc1Oc1ccc(F)cc1F", "Tested On": "COLO 205 colon", "Measurement Name": "TGI", "Reported Result": "> 25 µM"}
{"Compound": "C=CCO/N=C(\\OC(=O)c1ccc([N+](=O)[O-])cc1)c1ccccc1", "Tested On": "COLO 205 colon", "Measurement Name": "TGI", "Reported Result": "> 100 µM"}
{"Compound": "c1ccc2c(c1)SCCCSCCSCCCS2", "Tested On": "COLO 205 colon", "Measurement Name": "TGI", "Reported Result": "> 100 µM"}
{"Compound": "O=C(NCCc1ccccn1)OCc1nc2nc(Cl)nc(N3CCOCC3)c2[nH]1", "Tested On": "COLO 205 colon", "Measurement Name": "TGI", "Reported Result": "6.12 µM"}
{"Compound": "O=C(CCN1CCN2c3ccccc3CCC2C1)c1ccc(F)cc1 (configuration not stated)", "Tested On": "COLO 205 colon", "Measurement Name": "TGI", "Reported Result": "44.4 µM"}
{"Compound": "Cc1nc(N)c(N2CCN(CN)CC2)c(=O)[nH]1", "Tested On": "COLO 205 colon", "Measurement Name": "TGI", "Reported Result": "> 100 µM"}
{"Compound": "C#CCn1c(=O)c(C)cn(/C(=C\\C(=O)OCC)C(=O)OCC)c1=O", "Tested On": "COLO 205 colon", "Measurement Name": "TGI", "Reported Result": "3.12 µM"}
{"Compound": "O=C1CCC(N2C(=O)c3ccccc3C2=O)C(=O)N1 (configuration not stated)", "Tested On": "COLO 205 colon", "Measurement Name": "TGI", "Reported Result": "> 100 µM"}
{"Compound": "CN1C(=O)C(O)C[C@@H]1c1ccccc1 (some centres not stated)", "Tested On": "COLO 205 colon", "Measurement Name": "TGI", "Reported Result": "> 100 µM"}
{"Compound": "COc1cnc2c(c1)C(=O)c1c-2n(CCCNCCO)c(=O)c2ccncc12", "Tested On": "COLO 205 colon", "Measurement Name": "TGI", "Reported Result": "9.05 µM"}
{"Compound": "Cc1nc(Nc2cccnc2)sc1C(=O)/C=C/c1ccc(Cl)cc1", "Tested On": "COLO 205 colon", "Measurement Name": "TGI", "Reported Result": "6.47 µM"}
{"Compound": "CN(C)/N=N/c1nc2c(c(=O)n(C)c(=O)n2C)n1CC(O)CO (configuration not stated)", "Tested On": "COLO 205 colon", "Measurement Name": "TGI", "Reported Result": "> 100 µM"}
{"Compound": "O=C(Nn1c(-c2ccccc2)nc2ccccc2c1=O)c1ccccc1O", "Tested On": "COLO 205 colon", "Measurement Name": "TGI", "Reported Result": "> 100 µM"}
{"Compound": "O=c1[nH]n(Cc2ccccc2)c2ccc([N+](=O)[O-])cc12", "Tested On": "COLO 205 colon", "Measurement Name": "TGI", "Reported Result": "> 100 µM"}
{"Compound": "COC(=O)c1c2c(cc3c1CC1(Cc4cc5c(c(C(C)=O)c4C1)CCC5)C3)CCC2 (configuration not stated)", "Tested On": "COLO 205 colon", "Measurement Name": "TGI", "Reported Result": "> 100 µM"}
{"Compound": "NCc1cccc(O)c1O", "Tested On": "COLO 205 colon", "Measurement Name": "TGI", "Reported Result": "> 100 µM"}
{"Compound": "CCOc1c(N=Nc2ccccc2Cl)c(-c2ccccc2)nn1C(=S)S", "Tested On": "COLO 205 colon", "Measurement Name": "TGI", "Reported Result": "47.5 µM"}
{"Compound": "COc1ccc(CCc2cc(OC)cc(OC)c2)cc1", "Tested On": "COLO 205 colon", "Measurement Name": "TGI", "Reported Result": "> 60.5 µM"}
{"Compound": "O=C(O)CCNCCCCNCCC(=O)O", "Tested On": "COLO 205 colon", "Measurement Name": "TGI", "Reported Result": "> 100 µM"}
{"Compound": "C=CCP(=O)(CC=C)C(Cl)Cl", "Tested On": "COLO 205 colon", "Measurement Name": "TGI", "Reported Result": "> 100 µM"}
{"Compound": "C#Cc1c(C)c(/C=C/C(C)=C/C(=O)OC)n(C)c1C", "Tested On": "COLO 205 colon", "Measurement Name": "TGI", "Reported Result": "> 100 µM"}
{"Compound": "NN=C(CC(O)(C(F)(F)Cl)C(F)(F)Cl)CC(O)(C(F)(F)Cl)C(F)(F)Cl", "Tested On": "COLO 205 colon", "Measurement Name": "TGI", "Reported Result": "> 10 µM"}
{"Compound": "COc1cc2c(cc1O)CC1c3c(cc(O)c(OC)c3-2)CCN1C (configuration not stated)", "Tested On": "COLO 205 colon", "Measurement Name": "TGI", "Reported Result": "> 100 µM"}
